B1: GA-binding protein alpha chain, residues 172 to 250; numbered along this chain, Q06546 (parent)
chain: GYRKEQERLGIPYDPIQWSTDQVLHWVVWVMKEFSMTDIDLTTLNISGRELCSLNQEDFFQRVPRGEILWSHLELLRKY

variants of: B1; assay: abundance fitness (aPCA) (normalised: wild type 0, dead -1); higher = more abundant; growth selection in yeast, the domain comes from the species named; details: Homo sapiens
Recorded abundance fitness by entry

{"variantString": "I68A", "abundance fitness": 0.017}
{"variantString": "Q6E", "abundance fitness": -0.26}
{"variantString": "E5F", "abundance fitness": -0.419}
{"variantString": "W18F", "abundance fitness": -0.901}
{"variantString": "I39Y", "abundance fitness": -0.317}
{"variantString": "L41G", "abundance fitness": -0.134}
{"variantString": "L69C", "abundance fitness": -0.57}
{"variantString": "Y79E", "abundance fitness": 0.01}
{"variantString": "G10K", "abundance fitness": -0.041}
{"variantString": "K32M", "abundance fitness": -0.261}
{"variantString": "S53L", "abundance fitness": -0.108}
{"variantString": "L24C", "abundance fitness": 0.003}
{"variantString": "M36Q", "abundance fitness": -0.08}
{"variantString": "S71P", "abundance fitness": -0.102}
{"variantString": "N45P", "abundance fitness": -0.373}
{"variantString": "M36C", "abundance fitness": 0.081}
{"variantString": "L41T", "abundance fitness": -0.061}
